All values here come from patent US20260256925A1.

# system under test: ER (Homo sapiens, UniProt P03372)
# Construct: endogenous in cells; probably T47D or MCF-7
# assay explanation: Western blot analysis (compounds B1-B126)
# Assay type: cell-based
# measurement conditions: ER degradation, read-out: Traditional Western Degradation potency (DC50)
# reported DC50; entries follow

Field: example entries. Status: answers known.
C[C@@H]1Cc2c(ccc3[nH]ncc23)[C@@H](c2c(F)cc(N3CCC(CN4CCN5c6cc7c(cc6OC[C@@H]5C4)C(=O)N(C4CCC(=O)NC4=O)C7)CC3)cc2F)N1CC(F)F (some centres unmarked) [Compound B16]: 0.01 to 0.1 µM
C[C@@H]1Cc2c(ccc3[nH]ncc23)[C@@H](c2c(F)cc(C3CCN(C(=O)[C@H]4CC[C@H](N5Cc6cc7c(cc6C5)C(=O)N(C5CCC(=O)NC5=O)C7=O)CC4)CC3)cc2F)N1CC(F)F (some centres unmarked) [Compound B7]: > 0.1 µM
C[C@@H]1Cc2c(ccc3[nH]ncc23)[C@@H](c2c(F)cc([C@H]3CC[C@@H](C(=O)N4CCC(N5Cc6cc7c(cc6C5)C(=O)N(C5CCC(=O)NC5=O)C7=O)CC4)CC3)cc2F)N1CC(F)F (some centres unmarked) [Compound B1]: < 0.01 µM
C[C@@H]1Cc2c(ccc3[nH]ncc23)[C@@H](c2c(F)cc(N3CCC(CN4CCC(N5Cc6cc7c(cc6C5)C(=O)N(C5CCC(=O)NC5=O)C7)CC4)CC3)cc2F)N1CC(F)F (some centres unmarked) [Compound B71]: 0.01 to 0.1 µM

Next item in the queue.
Challenge: Short answer please: DC50, ER (Homo sapiens, UniProt P03372), entry C[C@@H]1Cc2c(ccc3[nH]ncc23)[C@@H](c2c(F)cc(N3CC4(CCN(C(=O)CN5Cc6cc7c(cc6C5)C(=O)N(C5CCC(=O)NC5=O)C7=O)CC4)C3)cc2F)N1CC(F)F (some centres unmarked) [Compound B13]
Response given: < 0.01 µM
